Test: Liver microsomes stability, mouse
Settings: mouse, Without NADPH, 60 min
recorded_endpoint: Remaining Percentage (%)
Give bare numbers, in %.

// below: answered compounds
compound | recorded_endpoint | unit_of_measurement | obs_value
CN(C)CCC1CNc2ccc(F)cc21 (centres unmarked) | Remaining Percentage | % | 97.83
O=C(O)Cc1ccccc1Nc1c(Cl)cccc1Cl | Remaining Percentage | % | 102.49
[2H]C([2H])([2H])Oc1ccc2c(c1)C(CCN(C)C)CN2 (centres unmarked) | Remaining Percentage | % | 80.37
COc1ccc2c(c1)C(CCN(C)C)CN2 (centres unmarked) | Remaining Percentage | % | 113.85

Next compound, please.
**Query** Name the recorded Remaining Percentage of the compound listed here: CN(C)CCC1CNc2ccccc21 (centres unmarked)
**Result** 86.24
